Let's look at some binders and their measured Relative Inhibition of IL-4 induced TARC IC50.
# target.system: T1, hIL-4Rα on cells (human, UniProt P24394 26-825)
# T1 sequence: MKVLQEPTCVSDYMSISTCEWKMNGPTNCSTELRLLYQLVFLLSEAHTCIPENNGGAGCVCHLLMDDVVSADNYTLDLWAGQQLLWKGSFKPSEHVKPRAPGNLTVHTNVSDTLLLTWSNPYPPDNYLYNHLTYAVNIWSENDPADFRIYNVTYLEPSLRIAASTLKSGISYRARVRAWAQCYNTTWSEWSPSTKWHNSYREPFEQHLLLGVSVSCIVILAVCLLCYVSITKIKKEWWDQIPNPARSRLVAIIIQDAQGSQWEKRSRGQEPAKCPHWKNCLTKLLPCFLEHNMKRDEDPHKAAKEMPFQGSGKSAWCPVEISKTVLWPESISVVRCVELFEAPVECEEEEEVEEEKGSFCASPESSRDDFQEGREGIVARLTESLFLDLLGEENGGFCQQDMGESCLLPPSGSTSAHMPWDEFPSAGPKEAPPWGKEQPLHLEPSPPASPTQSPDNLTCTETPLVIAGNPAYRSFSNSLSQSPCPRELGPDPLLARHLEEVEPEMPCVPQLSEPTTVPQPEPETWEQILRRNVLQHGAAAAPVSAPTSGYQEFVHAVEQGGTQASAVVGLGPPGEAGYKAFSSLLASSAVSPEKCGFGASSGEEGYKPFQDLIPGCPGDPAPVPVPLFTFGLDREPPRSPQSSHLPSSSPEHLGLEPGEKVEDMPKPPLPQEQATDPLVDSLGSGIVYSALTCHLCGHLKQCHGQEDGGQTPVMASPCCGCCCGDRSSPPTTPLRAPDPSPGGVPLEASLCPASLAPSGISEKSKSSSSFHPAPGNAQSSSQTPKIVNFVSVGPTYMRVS
# assay.explanation: cell-based or functional assay
outcome.measure: Relative Inhibition of IL-4 induced TARC IC50

binder | result
Construct 24 (mAb432) (antibody, IgG4, V domains shown, VH/VL only) VH: EVQLVESGGGLEQPGGSLRLSCAGSGFTFRDFAMTWVRQAPGKGLEWVSSISGSGGNIYYADSVKGRFTISRDNSKNTLYLQMNSLRAEDTAVYYCAKDRLSIAVRPRYYGLDVWGQGTTVTVSS VL: DIVMTQSPLSLPVTPGEPASISCTASQSLLYSIGKNYVDWYLQKSGQSPQLLIYLGNNRATGVPDRFSGSGSGTDFTLKISRVEAEDVGFYYCMQSLTSPYTFGQGTKLEIK | 0.445 relative to dupilumab
Construct 31 (mAb443) (antibody, IgG4, V domains shown, VH/VL only) VH: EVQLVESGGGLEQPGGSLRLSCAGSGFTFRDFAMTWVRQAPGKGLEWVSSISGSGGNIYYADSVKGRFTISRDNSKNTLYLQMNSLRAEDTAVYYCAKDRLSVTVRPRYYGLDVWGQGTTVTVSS VL: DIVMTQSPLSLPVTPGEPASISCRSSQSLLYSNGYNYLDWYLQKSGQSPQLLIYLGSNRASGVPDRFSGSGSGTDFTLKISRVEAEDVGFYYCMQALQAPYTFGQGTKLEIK | 1.37 relative to dupilumab
Construct 2 (mAb411) (antibody, IgG4, V domains shown, VH/VL only) VH: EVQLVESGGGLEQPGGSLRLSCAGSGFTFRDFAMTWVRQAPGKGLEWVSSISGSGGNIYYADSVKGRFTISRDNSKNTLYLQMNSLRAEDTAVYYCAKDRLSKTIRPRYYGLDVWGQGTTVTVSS VL: DIVMTQSPLSLPVTPGEPASISCTASQSLLYSIGYNYVDWYLQKSGQSPQLLIYLGSKRASGVPDRFSGSGSGTDFTLKISRVEAEDVGFYYCMQALTTPYTFGQGTKLEIK | 0.267 relative to dupilumab
Construct 4 (mAb413) (antibody, IgG4, V domains shown, VH/VL only) VH: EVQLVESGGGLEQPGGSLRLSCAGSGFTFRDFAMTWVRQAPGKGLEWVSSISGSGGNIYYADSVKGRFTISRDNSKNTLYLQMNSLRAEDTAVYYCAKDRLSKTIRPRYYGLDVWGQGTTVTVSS VL: DIVMTQSPLSLPVTPGEPASISCTASQSLLYSIGYNYVDWYLQKSGQSPQLLIYLGNNRATGVPDRFSGSGSGTDFTLKISRVEAEDVGFYYCMQALTTPYTFGQGTKLEIK | 0.266 relative to dupilumab
Construct 40 (mAb476) (antibody, IgG4, V domains shown, VH/VL only) VH: EVQLVESGGGLEQPGGSLRLSCAGSGFTFRDFAMTWVRQAPGKGLEWVSSVSGDGGNTYYADSVKGRFTISRDNSKNTLYLQMNSLRAEDTAVYYCAKDRLSKTIRPRYYGLDVWGQGTTVTVSS VL: DIVMTQSPLSLPVTPGEPASISCRSSQSVLYSIGYNYVDWYLQKSGQSPQLLIYLGNKRASGVPDRFSGSGSGTDFTLKISRVEAEDVGFYYCMQAYQSPYVFGQGTKLEIK | 1.6 relative to dupilumab
Construct 22 (mAb430) (antibody, IgG4, V domains shown, VH/VL only) VH: EVQLVESGGGLEQPGGSLRLSCAGSGFTFRDFAMTWVRQAPGKGLEWVSSISGSGSSTYYADSVKGRFTISRDNSKNTLYLQMNSLRAEDTAVYYCAKDRLSVTVRPRYYGLDVWGQGTTVTVSS VL: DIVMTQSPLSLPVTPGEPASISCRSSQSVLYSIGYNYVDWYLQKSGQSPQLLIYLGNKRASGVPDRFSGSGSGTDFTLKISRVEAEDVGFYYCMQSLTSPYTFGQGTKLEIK | 0.488 relative to dupilumab
Construct 43 (mAb482) (antibody, IgG4, V domains shown, VH/VL only) VH: EVQLVESGGGLEQPGGSLRLSCAGSGFTFRDFAMTWVRQAPGKGLEWVSSISGGGGNTYYADSVKGRFTISRDNSKNTLYLQMNSLRAEDTAVYYCAKDRLSIAVRPRYYGLDVWGQGTTVTVSS VL: DIVMTQSPLSLPVTPGEPASISCTSSQSLLYSIGYNYVDWYLQKSGQSPQLLIYLGSKRASGVPDRFSGSGSGTDFTLKISRVEAEDVGFYYCMQSLTSPYTFGQGTKLEIK | 1.56 relative to dupilumab
Construct 8 (mAb417) (antibody, IgG4, V domains shown, VH/VL only) VH: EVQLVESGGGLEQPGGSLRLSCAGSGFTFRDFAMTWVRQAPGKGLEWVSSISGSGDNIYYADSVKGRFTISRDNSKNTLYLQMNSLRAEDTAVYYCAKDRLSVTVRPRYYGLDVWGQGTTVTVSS VL: DIVMTQSPLSLPVTPGEPASISCRSTQSLLYSIGKNYVDWYLQKSGQSPQLLIYLGNNRATGVPDRFSGSGSGTDFTLKISRVEAEDVGFYYCMQALTTPYAFGQGTKLEIK | 1.11 relative to dupilumab
Construct 32 (mAb446) (antibody, IgG4, V domains shown, VH/VL only) VH: EVQLVESGGGLEQPGGSLRLSCAGSGFTFRDFAMTWVRQAPGKGLEWVSSVSGDGGNTYYADSVKGRFTISRDNSKNTLYLQMNSLRAEDTAVYYCAKDRLSVTVRPRYYGLDVWGQGTTVTVSS VL: DIVMTQSPLSLPVTPGEPASISCRSSQSLLYSNGYNYLDWYLQKSGQSPQLLIYLSSNRASGVPDRFSGSGSGTDFTLKISRVEAEDVGFYYCMQAFQAPYTFGQGTKLEIK | 4.36 relative to dupilumab
Construct 20 (mAb428) (antibody, IgG4, V domains shown, VH/VL only) VH: EVQLVESGGGLEQPGGSLRLSCAGSGFTFRDFAMTWVRQAPGKGLEWVSSISGSGDNTYYADSVKGRFTISRDNSKNTLYLQMNSLRAEDTAVYYCAKDRLSITVRPRYYGLDVWGQGTTVTVSS VL: DIVMTQSPLSLPVTPGEPASISCTSSQSLLYSIGYNYVDWYLQKSGQSPQLLIYLGNKRASGVPDRFSGSGSGTDFTLKISRVEAEDVGFYYCMQSLQTPYVFGQGTKLEIK | 3.63 relative to dupilumab
Construct 30 (mAb439) (antibody, IgG4, V domains shown, VH/VL only) VH: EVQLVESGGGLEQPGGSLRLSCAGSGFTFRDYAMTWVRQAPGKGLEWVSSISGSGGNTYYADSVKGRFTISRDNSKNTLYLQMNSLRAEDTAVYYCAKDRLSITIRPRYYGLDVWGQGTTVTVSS VL: DIVMTQSPLSLPVTPGEPASISCRSSQSLLYSNRNNYLDWYLQKSGQSPQLLIYSASIRASGVPDRFSGSGSGTDFTLKISRVEAEDVGFYYCMQAFQAPYTFGQGTKLEIK | 0.68 relative to dupilumab

From: patent US20260193366A1
